- test_system: murine CCR2 (Mus musculus, UniProt P51683)
- Construct: host or cells: U2OS β-arrestin cell line
- Sequence (P51683 whole entry): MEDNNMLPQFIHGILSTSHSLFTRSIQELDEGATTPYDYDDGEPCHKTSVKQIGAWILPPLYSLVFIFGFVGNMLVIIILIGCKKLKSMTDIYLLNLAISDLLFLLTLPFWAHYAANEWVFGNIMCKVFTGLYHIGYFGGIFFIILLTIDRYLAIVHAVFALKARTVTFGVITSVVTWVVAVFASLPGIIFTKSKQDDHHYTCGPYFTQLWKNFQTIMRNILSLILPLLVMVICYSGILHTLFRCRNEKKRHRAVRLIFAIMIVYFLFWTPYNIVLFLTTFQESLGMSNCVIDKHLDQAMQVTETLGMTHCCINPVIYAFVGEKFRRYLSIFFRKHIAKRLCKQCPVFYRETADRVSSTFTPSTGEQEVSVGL
- test_summary: Functional β-arrestin recruiting test with murine MCP-1 (B-2b)
- Assay type: cell-based
- stated_conditions: U2OS β-arrestin cell line transfected with murine CCR2; agonist murine MCP-1; in some cases means of several determinations
measurement_label: IC50 (nM)

Consider the worked cases shown below.
{"columns": ["molecule", "IC50 (nM)"],
 "data": [
  ["COc1ccc(-c2nc(C(F)(F)F)c(Oc3ccc(Cl)c(Cl)c3)c(=O)[nH]2)nc1", 454],
  ["O=c1[nH]c(-c2ncccc2Cl)nc(C(F)(F)F)c1Cc1ccc(Cl)c(C(F)(F)F)c1", 160],
  ["COc1nc(N)n(-c2nc(C(F)(F)F)c(Oc3ccc(Cl)c(Cl)c3)c(=O)[nH]2)n1", 613],
  ["O=c1[nH]c(-c2ccon2)nc(C(F)(F)F)c1Oc1ccc(Cl)c(C(F)(F)F)c1", 44],
  ["COc1conc1-c1nc(C(F)(F)F)c(Oc2ccc(Cl)c(Cl)c2)c(=O)[nH]1", 73]
]}

P: Nc1ccc(-c2nc(C(F)(F)F)c(Oc3ccc(Cl)c(C(F)(F)F)c3)c(=O)[nH]2)nn1
Q: O=c1[nH]c(-c2ccsn2)nc(C(F)(F)F)c1Oc1ccc(Cl)c(Cl)c1
R: CNc1cccc(-c2nc(C(F)(F)F)c(Oc3ccc(Cl)c(Cl)c3)c(=O)[nH]2)n1
S: O=c1[nH]c(-n2ncc3ncccc32)nc(C(F)(F)F)c1Oc1ccc(Cl)c(Cl)c1
T: Cc1cc(-c2nc(C(F)(F)F)c(Oc3ccc(Cl)c(C(F)(F)F)c3)c(=O)[nH]2)no1
Order the records so the highest IC50 appears first and the lowest last. Sort and list the labels as requested.
S, R, T, P, Q

###

- test_system: murine CCR2 (Mus musculus)
- Construct: host or cells: U2OS β-arrestin cell line
- test_summary: Functional β-arrestin recruiting test with human MCP-1 (B-2a)
- Format: cell-based
- stated_conditions: U2OS β-arrestin cell line transfected with murine CCR2; agonist human MCP-1 at EC50 (about 3 nM); in some cases means of several determinations
pIC50: −log10 of the molar value.
measurement_label: pIC50

Consider the worked cases shown below.
{"columns": ["molecule", "pIC50"],
 "data": [
  ["O=c1[nH]c(-c2cc[nH]n2)nc(C(F)(F)F)c1Oc1ccc(Cl)c(C(F)(F)F)c1", 8.74],
  ["Cc1ccc(-c2nc(C(F)(F)F)c(Oc3ccc(Cl)c(Cl)c3)c(=O)[nH]2)nc1", 6.92]
]}

a: O=c1[nH]c(-c2cc(O)ccn2)nc(C(F)(F)F)c1Oc1ccc(Cl)c(C(F)(F)F)c1
b: O=c1[nH]c(-c2cccc(Cl)n2)nc(C(F)(F)F)c1Oc1ccc(Cl)c(C(F)(F)F)c1
Form field 'greater pIC50' accepts a or b ; which applies? Reply with the label of the item you choose.
b

###

- test_system: murine CCR2 (Mus musculus, UniProt P51683)
- Construct: host or cells: U2OS β-arrestin cell line
- test_summary: Functional β-arrestin recruiting test with murine MCP-1 (B-2b)
- Type: cell-based
- stated_conditions: U2OS β-arrestin cell line transfected with murine CCR2; agonist murine MCP-1; in some cases means of several determinations
pIC50: −log10 of the molar value.
measurement_label: pIC50

A: Cn1cnc(-c2nc(C(F)(F)F)c(Oc3ccc(Cl)c(C(F)(F)F)c3)c(=O)[nH]2)c1 [Example 59]
B: O=c1[nH]c(-n2cncn2)nc(C(F)(F)F)c1Oc1ccc(Cl)c(Cl)c1 [Example 255]
Form field 'greater pIC50' accepts A or B ; which applies? Reply with the label of the item you choose.
A

###

- test_system: murine CCR2 (Mus musculus)
- Construct: host or cells: U2OS β-arrestin cell line
- test_summary: Functional β-arrestin recruiting test with murine MCP-1 (B-2b)
- Type: cell-based
- stated_conditions: U2OS β-arrestin cell line transfected with murine CCR2; agonist murine MCP-1; in some cases means of several determinations
measurement_label: IC50 (nM)

Consider the worked cases shown below.
{"columns": ["molecule", "uom", "IC50"],
 "data": [
  ["O=c1[nH]c(-c2ncccc2OC(F)(F)F)nc(C(F)(F)F)c1Oc1ccc(Cl)c(Cl)c1", "nM", 423],
  ["CN(C)c1cccc(-c2nc(C(F)(F)F)c(Oc3ccc(Cl)c(C(F)(F)F)c3)c(=O)[nH]2)n1", "nM", 1570],
  ["CCn1ccc(-c2nc(C(F)(F)F)c(Oc3ccc(Cl)c(C(F)(F)F)c3)c(=O)[nH]2)n1", "nM", 107]
]}

1: COc1cc(C)nc(-c2nc(C(F)(F)F)c(Oc3ccc(Cl)c(C(F)(F)F)c3)c(=O)[nH]2)n1
2: CC(=O)Nc1ccc(-c2nc(C(F)(F)F)c(Oc3ccc(Cl)c(C(F)(F)F)c3)c(=O)[nH]2)nc1
3: Nc1ccnc(-c2nc(C(F)(F)F)c(Oc3ccc(Cl)c(Cl)c3)c(=O)[nH]2)c1
4: Nc1ncc(-c2nc(C(F)(F)F)c(Oc3ccc(Cl)c(C(F)(F)F)c3)c(=O)[nH]2)cn1
Could you please order the items by IC50, going from the lowest number to the highest? Sort and list the labels as requested.
2, 1, 3, 4

###

- test_system: human CCR2 (Homo sapiens)
- test_summary: Functional Ca2+ release test (B-1)
- stated_conditions: Chem-1 cell line transfected with human CCR2; 50% inhibition of the MCP-1 effect, MCP-1 at EC50 (about 5 nM); in some cases means of several determinations
pIC50: −log10 of the molar value.
measurement_label: pIC50

I: O=c1[nH]c(-n2cnc(Cl)n2)nc(C(F)(F)F)c1Oc1ccc(Cl)c(Cl)c1 [Example 247]
II: CC(C)(C)Oc1cccc(-c2nc(C(F)(F)F)c(Oc3ccc(Cl)c(Cl)c3)c(=O)[nH]2)n1 [Example 146]
III: O=c1[nH]c(-c2ncccc2Cl)nc(C(F)(F)F)c1Oc1ccc(Cl)c(C(F)(F)F)c1 [Example 38]
IV: O=c1[nH]c(-c2ccncc2)nc(C(F)(F)F)c1Cc1ccc(Cl)c(Cl)c1 [Example 28]
Task field, ranking: reported pIC50, descending order. Sort and list the labels as requested.
III, IV, I, II
(III: 9.52, IV: 7.31, I: 6.91, II: 6.39)

###

- test_system: human CCR2 (Homo sapiens, UniProt P41597)
- Sequence (P41597 1-360 isoform P41597-2): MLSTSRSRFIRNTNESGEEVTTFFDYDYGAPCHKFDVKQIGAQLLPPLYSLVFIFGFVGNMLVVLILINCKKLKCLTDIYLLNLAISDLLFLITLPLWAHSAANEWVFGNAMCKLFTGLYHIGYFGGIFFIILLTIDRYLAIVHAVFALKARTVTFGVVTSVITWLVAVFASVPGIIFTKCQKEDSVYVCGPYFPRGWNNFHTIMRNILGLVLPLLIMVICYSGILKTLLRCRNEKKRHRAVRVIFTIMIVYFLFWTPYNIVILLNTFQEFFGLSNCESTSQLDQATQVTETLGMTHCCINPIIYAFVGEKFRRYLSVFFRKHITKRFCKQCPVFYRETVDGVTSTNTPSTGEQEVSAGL
- test_summary: Functional Ca2+ release test (B-1)
- stated_conditions: Chem-1 cell line transfected with human CCR2; 50% inhibition of the MCP-1 effect, MCP-1 at EC50 (about 5 nM); in some cases means of several determinations
pIC50: −log10 of the molar value.
measurement_label: pIC50

Consider the worked cases shown below.
{"columns": ["compound", "pIC50"],
 "data": [
  ["O=c1[nH]c(-c2ccsn2)nc(C(F)(F)F)c1Oc1ccc(Cl)c(Cl)c1 [Example 233]", 9.70],
  ["CC(C)Oc1ccnc(-c2nc(C(F)(F)F)c(Oc3ccc(Cl)c(Cl)c3)c(=O)[nH]2)c1 [Example 145]", 6.49],
  ["Cc1cc(-c2nc(C(F)(F)F)c(Cc3ccc(Cl)c(Cl)c3)c(=O)[nH]2)nn1C [Example 55]", 8.36],
  ["O=c1[nH]c(Cc2ccncc2)nc(C(F)(F)F)c1Cc1ccc(Cl)c(Cl)c1 [Example 93]", 7.08],
  ["CC(=O)Nc1ccc(-c2nc(C(F)(F)F)c(Oc3ccc(Cl)c(C(F)(F)F)c3)c(=O)[nH]2)nc1 [Example 199]", 9.22]
]}

a: Nc1cnn(-c2nc(C(F)(F)F)c(Oc3ccc(Cl)c(C(F)(F)F)c3)c(=O)[nH]2)c1 [Example 108]
b: O=c1[nH]c(Cc2ccsc2)nc(C(F)(F)F)c1Cc1ccc(Cl)c(Cl)c1 [Example 97]
c: Nc1ccc(-c2nc(C(F)(F)F)c(Oc3ccc(Cl)c(Cl)c3)c(=O)[nH]2)nn1 [Example 121]
Order the records so the highest pIC50 appears first and the lowest last. Sort and list the labels as requested.
c, a, b

###

- test_system: murine CCR2 (Mus musculus)
- Construct: host or cells: U2OS β-arrestin cell line
- test_summary: Functional β-arrestin recruiting test with human MCP-1 (B-2a)
- Type: cell-based
- stated_conditions: U2OS β-arrestin cell line transfected with murine CCR2; agonist human MCP-1 at EC50 (about 3 nM); in some cases means of several determinations
measurement_label: IC50 (nM)

{"columns": ["molecule", "measurement_label", "uom", "recorded_value"],
 "data": [
  ["O=c1[nH]c(-c2n[nH]cc2Cl)nc(C(F)(F)F)c1Cc1ccc(Cl)c(C(F)(F)F)c1", "IC50", "nM", 26],
  ["N=c1[nH]c(-c2nc(C(F)(F)F)c(Oc3ccc(Cl)c(Cl)c3)c(=O)[nH]2)no1", "IC50", "nM", 96]
]}

P: COc1cc(-c2nc(C(F)(F)F)c(Cc3ccc(Cl)c(Cl)c3)c(=O)[nH]2)ccn1
Q: Cc1cc(Nc2nc(C(F)(F)F)c(Oc3ccc(Cl)c(Cl)c3)c(=O)[nH]2)on1
Pick one, P or Q : lowest reported IC50. Reply with the label of the item you choose.
Q
